Dear all, I have gathered published Ki values for UniProtKB P06239; the list follows.
RECORDED METRIC: Ki

# COMPOUND, RECORDED METRIC, RESULT VALUE
data = [
    ("CCNc1sc(-c2ccnc(Nc3cccc(OC)c3)n2)c(-c2ccccc2)c1C(=O)OCC", "Ki", "100 to 1000 nM"),
    ("CSc1sc(-c2ccnc(Nc3cccc(OCCCN4CCN(CCO)CC4)c3)n2)c(-c2cccc(OCc3ccccc3)c2)c1C#N", "Ki", "100 to 1000 nM"),
    ("c1ccc(-c2[nH]c3ncnc(NCC4CCCO4)c3c2-c2ccccc2)cc1 (centres unmarked)", "Ki", "< 10 nM"),
    ("Cc1onc(C2CCCCC2)c1-c1ccnc(Nc2cccc(OCCCN3CCNCC3)c2)n1", "Ki", "< 100 nM"),
    ("N#Cc1c(O)sc(-c2ccnc(Nc3cccc(OCc4ccccc4)c3)n2)c1-c1ccccc1", "Ki", "< 100 nM"),
    ("CCCCS(=O)(=O)Nc1cccc(Nc2nccc(-c3sc(SC)c(C#N)c3-c3cccnc3)n2)c1", "Ki", "< 100 nM"),
    ("CSc1sc(-c2ccnc(Nc3cccc(OCCCNCCCO)c3)n2)c(-c2cccc(OCc3ccccc3)c2)c1C#N", "Ki", "< 100 nM"),
    ("Cc1cccc(C)c1Nc1nn(CCCN2CCCCC2)c2nc(Nc3ccccc3)ncc12", "Ki", "< 10 nM"),
]

====

Dear all, I have gathered published Ki values for UniProt P06239; the list follows.

# MOLECULAR STRING, Ki
rows = [
    ("COCCNCCCOc1cccc(Nc2ncc(C)c(-c3sc(SC)c(C#N)c3-c3cccnc3)n2)c1", "< 100 nM"),
    ("CSc1sc(-c2ccnc(Nc3cccc(O)c3)n2)c(-c2cccc(-c3ccncc3)c2)c1C#N", "< 100 nM"),
    ("Cc1cccc(C)c1Nc1nn(CCCN(C)C)c2nc(Nc3ccccc3)ncc12", "< 10 nM"),
    ("Cc1cccc(C)c1Nc1nn(CCCN2CCCC2)c2nc(Nc3ccccc3)ncc12", "< 10 nM"),
    ("Cc1onc(C2CCCCC2)c1-c1ccnc(Nc2cccc(OCCCN3CCCC3)c2)n1", "< 100 nM"),
    ("Cc1cccc(C)c1Nc1nn(CC2CCOCC2)c2nc(Nc3ccc(N4CCNCC4)cc3)ncc12", "< 10 nM"),
    ("CSc1sc(-c2ccnc(Nc3cccc(OCCCN4CCCC4)c3)n2)c(C2CCCCC2)c1C#N", "< 100 nM"),
    ("Cc1onc(C2CCCCC2)c1-c1ccnc(Nc2cccc(OCCN3CCC(CO)CC3)c2)n1", "< 100 nM"),
]

====

pKi: −log10 of the molar value.
Dear all, I have gathered published pKi values for Tyrosine-protein kinase Lck (Homo sapiens, UniProt P06239); the list follows.

# COMPOUND, pKi
rows = [
    ("CN(C)CCOc1ccc(-c2[nH]c3ncnc(NCC4CCC4)c3c2-c2ccccc2)cc1", "> 8.00"),
    ("CN(C)CCOc1ccc(-c2[nH]c3ncnc(NCC4SCCS4)c3c2-c2ccccc2)cc1", "> 8.00"),
    ("COC(C)(C)CCn1nc(Nc2c(C)cccc2C)c2ccc(Nc3ccc(N4CC(C)NC(C)C4)cc3)cc21 (centres unmarked)", "> 8.00"),
    ("c1ccc(-c2[nH]c3ncnc(NCCN4CCOCC4)c3c2-c2ccccc2)cc1", "7.00 to 8.00"),
    ("O=S(=O)(c1ccc(-c2[nH]c3ncnc(NCC4CCCO4)c3c2-c2ccccc2)cc1)N1CCOCC1 (centres unmarked)", "> 8.00"),
    ("C=CCCn1nc(Nc2c(Cl)cccc2Cl)c2cnc(Nc3ccccc3)nc21", "> 8.00"),
    ("CN(C)CCOc1ccc(-c2[nH]c3ncnc(NC[C@H]4CCC[C@H]4N)c3c2-c2ccccc2)cc1 (relative stereo)", "7.00 to 8.00"),
    ("CSc1sc(-c2ccnc(Nc3cccc(OCCCNCCO)c3)n2)c(C2CCCCC2)c1C#N", "> 7.00"),
]

====

pKi: −log10 of the molar value.
Dear all, I have gathered published pKi values for Tyrosine-protein kinase Lck (Homo sapiens, UniProt P06239); the list follows.
RECORDED METRIC: pKi

# COMPOUND, TARGET OR SYSTEM, RECORDED METRIC, RESULT VALUE
rows = [
    ("CSc1sc(-c2nc(Nc3cccc(OCCCN4CCOCC4)c3)ncc2C)c(-c2cccnc2)c1C#N", "Tyrosine-protein kinase Lck (Homo sapiens, UniProt P06239)", "pKi", "6.00 to 7.00"),
    ("Cc1onc(C2CCCCC2)c1-c1ccnc(Nc2cccc(OCCN3CCC(O)CC3)c2)n1", "Tyrosine-protein kinase Lck (Homo sapiens, UniProt P06239)", "pKi", "> 7.00"),
    ("CSc1sc(-c2ccnc(Nc3cccc(OCCCN4CCCC4)c3)n2)c(-c2cccnc2)c1C#N", "Tyrosine-protein kinase Lck (Homo sapiens, UniProt P06239)", "pKi", "> 7.00"),
    ("CO[C@@H]1CC[C@H]1CNc1ncnc2[nH]c(-c3ccc(OCCN(C)C)cc3)c(-c3ccccc3)c12 (mixture of isomers)", "Tyrosine-protein kinase Lck (Homo sapiens, UniProt P06239)", "pKi", "> 8.00"),
    ("CN(C)CCNC(=O)c1ccc(-c2[nH]c3ncnc(NCC4CCCO4)c3c2-c2ccccc2)cc1 (stereo not shown)", "Tyrosine-protein kinase Lck (Homo sapiens, UniProt P06239)", "pKi", "> 8.00"),
    ("CSc1sc(-c2ccnc(Nc3cccc(OCCCn4ccnc4)c3)n2)c(C2CCCCC2)c1C#N", "Tyrosine-protein kinase Lck (Homo sapiens, UniProt P06239)", "pKi", "> 7.00"),
    ("Cc1onc(C2CCCCC2)c1-c1ccnc(Nc2cccc(OCCN3CCCC3)c2)n1", "Tyrosine-protein kinase Lck (Homo sapiens, UniProt P06239)", "pKi", "> 7.00"),
    ("COC(C)(C)CCn1nc(Nc2c(C)cc(F)cc2C)c2cnc(Nc3ccc(N4CCN(C)CC4)cc3)nc21", "Tyrosine-protein kinase Lck (Homo sapiens, UniProt P06239)", "pKi", "> 8.00"),
    ("CN(C)CCOc1ccc(-c2[nH]c3ncnc(NC[C@H]4CCC[C@H]4O)c3c2-c2ccccc2)cc1 (relative stereo)", "Tyrosine-protein kinase Lck (Homo sapiens, UniProt P06239)", "pKi", "> 8.00"),
    ("Cc1onc(C2CCCCC2)c1-c1ccnc(Nc2cccc(OCC3CCCN(C(=O)OC(C)(C)C)C3)c2)n1 (stereo not shown)", "Tyrosine-protein kinase Lck (Homo sapiens, UniProt P06239)", "pKi", "< 6.00"),
    ("CSc1sc(-c2ccnc(Nc3cccc(NC(=O)CCCNC(C)=O)c3)n2)c(-c2cccnc2)c1C#N", "Tyrosine-protein kinase Lck (Homo sapiens, UniProt P06239)", "pKi", "> 7.00"),
    ("Cc1onc(C2CCCCC2)c1-c1ccnc(Nc2cccc(OCCCN3CCC(CO)CC3)c2)n1", "Tyrosine-protein kinase Lck (Homo sapiens, UniProt P06239)", "pKi", "> 7.00"),
    ("CSc1sc(-c2ccnc(Nc3cccc(OCCCNCCCO)c3)n2)c(-c2cccc(O)c2)c1C#N", "Tyrosine-protein kinase Lck (Homo sapiens, UniProt P06239)", "pKi", "> 7.00"),
    ("CSc1sc(-c2ccnc(Nc3cccc(OCCCN4CCC(CO)CC4)c3)n2)c(-c2cccc(OCc3ccccc3)c2)c1C#N", "Tyrosine-protein kinase Lck (Homo sapiens, UniProt P06239)", "pKi", "6.00 to 7.00"),
    ("CSc1sc(-c2ccnc(Nc3cccc(OCCCN4CCCC(O)C4)c3)n2)c(C2CCCCC2)c1C#N (stereo not shown)", "Tyrosine-protein kinase Lck (Homo sapiens, UniProt P06239)", "pKi", "> 7.00"),
    ("Cc1cccc(C)c1Nc1nn(CCC(C)O)c2nc(Nc3ccccc3)ncc12 (stereo not shown)", "Tyrosine-protein kinase Lck (Homo sapiens, UniProt P06239)", "pKi", "> 8.00"),
]

====

Dear all, I have gathered published Ki values for UniProt P06239; the list follows.

# COMPOUND, TARGET OR SYSTEM, Ki
data = [
    ("Cc1onc(C2CCCCC2)c1-c1ccnc(Nc2cccc(OCCCN3CCC[C@H]3CO)c2)n1", "UniProt P06239", "< 100 nM"),
    ("Cc1onc(C2CCCCC2)c1-c1ccnc(Nc2cccc(OCCCCN3CCC(O)CC3)c2)n1", "UniProt P06239", "< 100 nM"),
    ("CCOc1sc(-c2ccnc(Nc3ccccc3)n2)c(-c2ccc(C)cc2)c1C#N", "UniProt P06239", "< 100 nM"),
    ("c1ccc(-c2c(-c3ccc(OCCN4CCOCC4)cc3)[nH]c3ncnc(NCC4CCCO4)c23)cc1 (centres unmarked)", "UniProt P06239", "< 10 nM"),
    ("C=CCNS(=O)(=O)c1ccc(-c2[nH]c3ncnc(NCC4CCCO4)c3c2-c2ccccc2)cc1 (centres unmarked)", "UniProt P06239", "< 10 nM"),
    ("COCCOc1ccc(Nc2ncc3c(Nc4c(C)cccc4C)nn(CCC(C)(C)OC)c3n2)cc1", "UniProt P06239", "< 10 nM"),
    ("CSc1sc(-c2ccnc(Nc3cccc(O)c3)n2)c(-c2ccccc2)c1C#N", "UniProt P06239", "< 100 nM"),
    ("Cc1cccc(C)c1Nc1nn(CCC2COCO2)c2nc(Nc3ccccc3)ncc12 (centres unmarked)", "UniProt P06239", "< 10 nM"),
]
